- Test system: L. donovani
- experiment-description: L. donovani in vitro assay
- Assay type: cell-based, Leishmania donovani
- test-parameters: Leishmania donovani, read-out: L. don EC50, B10R host cell line
recorded-metric: EC50 (µM)
One number for each entry, in µM.

Worked examples, 3 molecules total:
| molecule | quantity-unit | EC50 |
| --- | --- | --- |
| CN1CCN(c2ncc(-c3ccc4nncc(Nc5ccc(OC(F)(F)F)cc5)c4c3)cn2)CC1 [Compound 28a] | µM | 1.5 |
| C[C@@H]1[C@H](O)[C@@H](C)/C=C/C=C/C=C/C=C/C=C/C=C/C=C/[C@H](O[C@@H]2O[C@H](C)[C@@H](O)[C@H](N)[C@@H]2O)C[C@@H]2O[C@](O)(C[C@@H](O)C[C@@H](O)[C@H](O)CC[C@@H](O)C[C@@H](O)CC(=O)O[C@H]1C)C[C@H](O)[C@H]2C(=O)O [Amphotericin B, reference compound] | µM | 0.07 |
| CN1CCN(S(=O)(=O)c2ccc(-c3ccc4nncc(Nc5ncccn5)c4c3)cc2)CC1 [Compound 16a] | µM | 9 |

Give EC50 for each listed item.
1. COc1cnc(Nc2cnnc3ccc(-c4ccc(N5CCN(C)CC5)cc4)cc23)nc1 [Compound 25a]
2. CN1CCN(c2ccc(-c3ccc4nncc(Nc5ccc(OC(F)(F)F)cc5)c4c3)cc2)CC1 [Compound 24a]

[9.4, 0.52]

Give EC50 for each listed item.
1. COc1cnc(Nc2cnnc3ccc(-c4ccc(S(=O)(=O)N5CCN(C)CC5)cc4)cc23)nc1 [Compound 21a]
2. COc1ccc(Nc2cnnc3ccc(-c4ccc(N5CCN(C)CC5)cc4)cc23)cc1 [Compound 23a]
3. COc1ccc(Nc2cnnc3ccc(-c4ccc(S(=O)(=O)N5CCN(C)CC5)cc4)cc23)cc1 [Compound 18a]
4. CN1CCCN(S(=O)(=O)c2ccc(-c3ccc4nncc(Nc5ccc(OC(F)(F)F)cc5)c4c3)cc2)CC1 [Compound 34a]
5. CN1CCN(S(=O)(=O)c2ccc(-c3ccc4nncc(Nc5ccc(OC(F)(F)F)cc5)c4c3)cc2)CC1 [Compound 20a]
6. CN1CCN(S(=O)(=O)c2ccc(-c3ccc4c(Nc5cnccn5)cnnc4c3)cc2)CC1 [Compound 15b]

5.77
2.3
3.4
1.8
0.11
5.52

Give EC50 for each listed item.
1. COc1ccc(Nc2cnnc3ccc(-c4ccc(S(=O)(=O)N5CCN(C)CC5)cc4)cc23)nc1 [Compound 19a]
2. CN1CCCN(c2ncc(-c3ccc4nncc(Nc5ncc(Cl)cn5)c4c3)cn2)CC1 [Compound 29a]
3. COc1ccc(Nc2cnnc3ccc(-c4ccc(S(=O)(=O)N5CCN(C)CC5)cc4)cc23)cc1Cl [Compound 17a]
4. COc1cnc(Nc2cnnc3ccc(-c4cnc(N5CCCN(C)CC5)nc4)cc23)nc1 [Compound 32a]

[4.9, 0.22, 9.3, 8]
